# Test system: Lolium multiflorum
# protocol-text: Pre-emergence herbicidal effect
# Format: in vivo
# measurement-setup: 80 g/ha, visual score after 3 weeks
property-measured: Pre-emergence effectiveness LOLMU (%)
Numbers only, in %.

Task item: Return Pre-emergence effectiveness LOLMU (reported value) for this compound: CC#Cc1cc(C)c(C2=C(OC(=O)C(C)C)C3(CCC(COC)C3)NC2=O)c(CC)c1 (stereo not shown) [Example Ia-7]
Reply: 100

Each compound below has a recorded value; state its Pre-emergence effectiveness LOLMU.
1. CC#Cc1cc(C)c(C2=C(O)C3(CCC(CCOC)CC3)NC2=O)c(CC)c1 (stereo not shown)
2. CC#Cc1cc(C)c(C2=C(O)C3(CCC(COC)C3)NC2=O)c(CC)c1 (stereo not shown) [Example I-9]
3. CC#Cc1cc(CC)c(C2=C(OC(=O)C(C)C)C3(CCC(OCCOC)CC3)NC2=O)c(CC)c1 (stereo not shown)

Reply:
1. 100
2. 80
3. 100

====

# Tested on: Echinochloa crus-galli
# protocol-text: Post-emergence herbicidal effect
# Format: in vivo
# measurement-setup: 20 g/ha, visual assessment after about 3 weeks
property-measured: Post-emergence effectiveness ECHCG
Reply with a number, then the unit it belongs to.

Task item: For Echinochloa crus-galli, give Post-emergence effectiveness ECHCG of the listed molecule: CC#Cc1cc(C)c(C2=C(OC(=O)C(C)C)C3(CCC(COC)C3)NC2=O)c(CC)c1 (stereo not shown) [Example Ia-7]
Reply: 90%

Task item: Lab note: record Post-emergence effectiveness ECHCG of CC#Cc1cc(CC)c(C2=C(OC(=O)C(C)C)C3(CCC(OCCOC)CC3)NC2=O)c(CC)c1 (stereo not shown) tested on Echinochloa crus-galli.
Reply: 80%

Task item: Under Echinochloa crus-galli, report Post-emergence effectiveness ECHCG for COCC1CCC2(C1)NC(=O)C(c1c(C)cc(C#CC3CC3)cc1C)=C2O (mixture of isomers) [Example I-14]
Reply: 90%

Task item: Print Echinochloa crus-galli Post-emergence effectiveness ECHCG for CCc1cc(C#CC2CC2)cc(C)c1C1=C(O)C2(CCC(COC)C2)NC1=O (stereo not shown) [Example I-11] .
Reply: 100%

Task item: Return reported Post-emergence effectiveness ECHCG for target or system Echinochloa crus-galli, item `CCOC(=O)OC1=C(c2c(C)cc(C#CC3CC3)cc2CC)C(=O)N[C@]12CC[C@H](COC)C2` .
Reply: 90%

Task item: Lab note: record Post-emergence effectiveness ECHCG of COCC1CCC2(C1)NC(=O)C(c1c(C)cc(C#CC3CC3)cc1C)=C2O (stereo not shown) [Example I-13] tested on Echinochloa crus-galli.
Reply: 90%

Fill in Post-emergence effectiveness ECHCG for each of the 6 molecules listed.
1. CC#Cc1cc(C)c(C2=C(O)C3(CCC(CCOC)CC3)NC2=O)c(CC)c1 (stereo not shown)
2. CC#Cc1cc(C)c(C2=C(O)C3(CCC(COC)C3)NC2=O)c(CC)c1 (stereo not shown) [Example I-9]
3. CCc1cc(C#CC2CC2)cc(C)c1C1=C(OC(=O)C(C)C)C2(CCC(COC)C2)NC1=O (stereo not shown) [Example Ia-11]
4. CCc1cc(C#CC2CC2)cc(C)c1C1=C(O)C2(CCC(COC)C2)NC1=O (stereo not shown) [Example I-12]
5. CCc1cc(C#CC2CC2)cc(C)c1C1=C(OC(=O)C(C)C)C2(CCC(COC)C2)NC1=O (stereo not shown) [Example Ia-12]
6. CCc1cc(C#CC2CC2)cc(C)c1C1=C(O)C2(CCC(COC)CC2)NC1=O (stereo not shown)

Reply:
1: 100%; 2: 100%; 3: 100%; 4: 100%; 5: 100%; 6: 100%

Task item: State measured Post-emergence effectiveness ECHCG of the molecule CCc1cc(C#CC2CC2)cc(C)c1C1=C(OC(=O)C(C)C)C2(CCC(COC)C2)NC1=O (mixture of isomers) [Example Ia-10] with Echinochloa crus-galli.
Reply: 90%

====

# Tested on: Lolium multiflorum
# protocol-text: Post-emergence herbicidal effect
# Type: in vivo
# measurement-setup: 80 g/ha, visual assessment after about 3 weeks
property-measured: Post-emergence effectiveness LOLMU (%)
Give bare numbers, in %.

Recorded Post-emergence effectiveness LOLMU, per entry:
Task item: Read the entry CC#Cc1cc(C)c(C2=C(OC(=O)C(C)C)C3(CCC(COC)C3)NC2=O)c(CC)c1 (centres unmarked) [Example Ia-6] and write its reported Post-emergence effectiveness LOLMU.
Reply: 90

Task item: Please give measured Post-emergence effectiveness LOLMU of the following entry: CCc1cc(C#CC2CC2)cc(C)c1C1=C(O)C2(CCC(COC)CC2)NC1=O (centres unmarked)
Reply: 100

Task item: // fetch Post-emergence effectiveness LOLMU given entry CCc1cc(C#CC2CC2)cc(C)c1C1=C(OC(=O)C(C)C)C2(CCC(COC)C2)NC1=O (centres unmarked) [Example Ia-12]
Reply: 100

Task item: Give a short answer stating reported Post-emergence effectiveness LOLMU for CC#Cc1cc(C)c(C2=C(OC(=O)C(C)C)C3(CCC(COC)C3)NC2=O)c(CC)c1 (centres unmarked) [Example Ia-9] .
Reply: 90

Task item: Read off the recorded Post-emergence effectiveness LOLMU for COCC1CCC2(CC1)NC(=O)C(c1c(C)cc(C#CC3CC3)cc1C)=C2O (centres unmarked)
Reply: 90

Dear reader, for each entry below, please note its Post-emergence effectiveness LOLMU.
1. CCc1cc(C#CC2CC2)cc(C)c1C1=C(OC(=O)C(C)C)C2(CCC(COC)C2)NC1=O (centres unmarked) [Example Ia-11]
2. CC#Cc1cc(C)c(C2=C(O)C3(CCC(CCOC)CC3)NC2=O)c(CC)c1 (centres unmarked)
3. CC#Cc1cc(C)c(C2=C(OC(=O)C(C)C)C3(CCC(COC)CC3)NC2=O)c(CC)c1 (centres unmarked)

Reply:
1: 90; 2: 100; 3: 100

====

# System: Avena fatua
# protocol-text: Post-emergence herbicidal effect
# Assay type: in vivo
# measurement-setup: 20 g/ha, visual assessment after about 3 weeks
I'd appreciate it if you could supply Post-emergence effectiveness AVEFA values for the items below.
One number for each entry, in %.

Please review the following examples before continuing.
Task item: Retrieve Post-emergence effectiveness AVEFA on Avena fatua; query CC#Cc1cc(C)c(C2=C(O)C3(CCC(COC)C3)NC2=O)c(CC)c1 (stereo not shown) [Example I-9]
Reply: 90

Task item: Enter Post-emergence effectiveness AVEFA (test system Avena fatua) for CCc1cc(C#CC2CC2)cc(C)c1C1=C(O)C2(CCC(COC)C2)NC1=O (stereo not shown) [Example I-11]
Reply: 80

Batch: Post-emergence effectiveness AVEFA for all items listed.
1. CC#Cc1cc(C)c(C2=C(O)C3(CCC(COC)C3)NC2=O)c(CC)c1 (stereo not shown) [Example I-10]
2. CCc1cc(C#CC2CC2)cc(C)c1C1=C(OC(=O)C(C)C)C2(CCC(COC)C2)NC1=O (stereo not shown) [Example Ia-12]

Reply:
1: 100; 2: 100
